molecular target: RET (E762Q) (Homo sapiens, UniProt P07949, E762Q); construct: purchased Reaction Biology Corporation (contract assay); assay: Biochemical kinase assay; conditions: 10 μM ATP

{"COMPOUND": "C[C@H]1CNC(=O)c2cnn3cc4c(nc23)N(Cc2cc(F)cnc2O1)[C@@H]1CCC[C@@H]1O4 [Compound I]", "UNITS LABEL": "nM", "IC50": 1}

* * *

molecular target: RET (R813Q) (Homo sapiens, UniProt P07949, R813Q); construct: purchased Reaction Biology Corporation (contract assay); test: Biochemical kinase assay; details: 10 μM ATP

{"COMPOUND": "C[C@H]1CNC(=O)c2cnn3cc4c(nc23)N(Cc2cc(F)cnc2O1)[C@@H]1CCC[C@@H]1O4 [Compound I]", "IC50 [nM]": 1.7}

* * *

target: HCK (Homo sapiens, UniProt P08631); construct: purchased Reaction Biology Corporation (contract assay); assay: Biochemical kinase assay; conditions: 10 μM ATP
Sequence (P08631 whole entry): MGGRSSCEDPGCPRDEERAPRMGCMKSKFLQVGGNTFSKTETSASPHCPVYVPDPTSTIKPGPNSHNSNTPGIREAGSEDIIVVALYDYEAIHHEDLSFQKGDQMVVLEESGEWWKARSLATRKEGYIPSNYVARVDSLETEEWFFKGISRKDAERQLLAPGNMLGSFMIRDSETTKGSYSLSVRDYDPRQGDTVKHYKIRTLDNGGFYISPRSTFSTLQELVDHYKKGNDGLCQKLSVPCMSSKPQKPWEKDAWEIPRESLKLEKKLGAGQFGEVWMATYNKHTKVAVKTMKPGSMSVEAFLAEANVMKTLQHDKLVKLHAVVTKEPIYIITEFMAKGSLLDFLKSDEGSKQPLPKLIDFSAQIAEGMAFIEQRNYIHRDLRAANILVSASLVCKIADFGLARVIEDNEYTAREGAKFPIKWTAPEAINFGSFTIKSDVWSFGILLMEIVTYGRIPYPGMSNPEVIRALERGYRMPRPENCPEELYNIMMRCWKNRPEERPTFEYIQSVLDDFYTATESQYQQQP
VALUE TYPE: IC50 (nM)

{"COMPOUND STRUCTURE": "C[C@H]1CNC(=O)c2cnn3cc4c(nc23)N(Cc2cc(F)cnc2O1)[C@@H]1CCC[C@@H]1O4", "MEASURED ON": "HCK (Homo sapiens, UniProt P08631)", "UNITS LABEL": "nM", "TEST RESULT": 2.7}

* * *

tested on: KM12 cell (TPM3-TRKA); assay: Cell proliferation assay (CellTiter-Glo); assay type: cell-based; settings: Homo sapiens, anti-cell proliferation, 72 hours
pIC50: −log10 of the molar value.
VALUE TYPE: pIC50

{"COMPOUND STRUCTURE": "C[C@H]1CNC(=O)c2cnn3cc4c(nc23)N(Cc2cc(F)cnc2O1)[C@@H]1CCC[C@@H]1O4", "TEST RESULT": 8.52}

* * *

target: RET (S904A) (Homo sapiens, UniProt P07949, S904A); construct: purchased Reaction Biology Corporation (contract assay); assay: Biochemical kinase assay; settings: 10 μM ATP

{"COMPOUND STRUCTURE": "C[C@H]1CNC(=O)c2cnn3cc4c(nc23)N(Cc2cc(F)cnc2O1)[C@@H]1CCC[C@@H]1O4", "IC50": "0.9 nM"}

* * *

Target: RET-CCDC6 (PTC1) (Homo sapiens, UniProt P07949)
Construct: CCDC6 fragment (fusion partner); purchased Reaction Biology Corporation (contract assay); the other entry of the earlier key: CCDC6 (Q16204, Coiled-coil domain-containing protein 6)
Sequence (P07949 with tags, fused parts or gaps): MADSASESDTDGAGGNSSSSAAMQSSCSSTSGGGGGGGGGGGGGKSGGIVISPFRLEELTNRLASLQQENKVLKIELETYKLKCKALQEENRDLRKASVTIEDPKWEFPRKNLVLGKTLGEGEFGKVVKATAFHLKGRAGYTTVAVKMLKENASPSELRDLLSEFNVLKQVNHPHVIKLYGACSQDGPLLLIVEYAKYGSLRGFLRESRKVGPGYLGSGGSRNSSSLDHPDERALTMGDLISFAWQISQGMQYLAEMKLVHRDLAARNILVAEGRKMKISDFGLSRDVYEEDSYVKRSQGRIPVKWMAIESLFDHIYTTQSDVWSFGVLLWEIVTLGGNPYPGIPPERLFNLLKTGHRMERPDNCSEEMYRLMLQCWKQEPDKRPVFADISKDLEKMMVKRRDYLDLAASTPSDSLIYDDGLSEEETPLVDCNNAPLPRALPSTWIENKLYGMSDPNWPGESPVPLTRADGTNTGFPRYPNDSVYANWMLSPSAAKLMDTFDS
Experiment: Biochemical kinase assay
Conditions: 10 μM ATP
VALUE TYPE: IC50 (nM)

{"MOLECULE": "C[C@H]1CNC(=O)c2cnn3cc4c(nc23)N(Cc2cc(F)cnc2O1)[C@@H]1CCC[C@@H]1O4 [Compound I]", "MEASURED ON": "RET-CCDC6 (PTC1) (Homo sapiens, UniProt P07949)", "UNITS LABEL": "nM", "TEST RESULT": 0.5}
